Measured pIC50 accompanies every entry in the list below.
# System: AN3-CA;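 further: growth inhibition of human AN3-CA cells measured by a cell viability assay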
# Experiment: cells
# Assay type: functional, cell-based
# Condition context: Homo sapiens
# Description: SANGER: Inhibition of human AN3-CA cell growth in a cell viability assay.
pIC50: −log10 of the molar value.

Some solved cases for reference:
[
  {
    "Molecule": "CC1(C)CCC(c2ccc(Cl)cc2)=C(CN2CCN(c3ccc(C(=O)NS(=O)(=O)c4ccc(N[C@H](CCN5CCOCC5)CSc5ccccc5)c(S(=O)(=O)C(F)(F)F)c4)cc3)CC2)C1",
    "Experimental readout": "pIC50",
    "Observed value": "< 5.70"
  },
  {
    "Molecule": "CC1=C(/C=C/C(C)=C/C=C/C(C)=C/C(=O)O)C(C)(C)CCC1",
    "Experimental readout": "pIC50",
    "Observed value": "< 5.00"
  }
]

Please supply the value of reported pIC50 for the item O=C1NC(=O)c2c1c(-c1ccccc1Cl)cc1[nH]c3ccc(O)cc3c21
< 5.70

Reference source: ChEMBL document CHEMBL1201861
